# Test system: ATF4 expression, HEK293T cells carrying the ATF4 luciferase reporter
# experimentSummary: ATF4 expression inhibition assay (ATF4 luciferase reporter)
# Format: cell-based
# experimentalParameters: Homo sapiens, HEK-293T, 100 nM thapsigargin, 3 hours
# Protocol: The ATF4 reporter was prepared by fusing the human full length 5′UTR of ATF4 (NCBI Accession No. BC022088.2) upstream of the firefly luciferase coding sequence lacking the initiator methionine. […] Luciferase reactions were performed using Luciferase Assay System (Promega #E1501) as specified by the manufacturer. Luminescence was read with an integration time of 1 s and a gain of 110 using a Cytation-5 multi-mode microplate reader (BioTek). […]
quantity: log10(IC50) (log10 of the value in nM)

O=C(COc1ccc(Cl)c(F)c1)N[C@H]1CC[C@H](CNC(=O)c2ccc3cc(Cl)ccc3n2)CC1 = 2.03
O=C(COc1ccc(Cl)cc1)N[C@H]1CC[C@H](CNC(=O)c2cc3cc(Cl)ccc3o2)CC1 = 0.16
O=C(Cc1ccc(Cl)cc1)NC[C@H]1CC[C@H](NC(=O)COc2ccc(Cl)c(F)c2)CC1 = 1.10
O=C(NCC1CCN(NC(=O)c2cc3cc(Cl)ccc3o2)CC1)c1cc2cc(Cl)ccc2o1 = -0.23
CCN1CC(C(=O)N[C@H]2CC[C@H](NC(=O)COc3ccc(Cl)cc3)CC2)Oc2ccc(Cl)cc21 (stereo partly shown) = 1.96
COc1ccc2oc(C(=O)NC[C@H]3CC[C@H](NC(=O)COc4ccc(Cl)c(F)c4)CC3)cc2c1 = 0.72

---

# System: ATF4 expression, HEK293T cells carrying the ATF4 luciferase reporter
# experimentSummary: ATF4 expression inhibition assay (ATF4 luciferase reporter)
# Assay type: cell-based
# experimentalParameters: Homo sapiens, HEK-293T, 100 nM thapsigargin, 3 hours
pIC50: −log10 of the molar value.
The following compounds are listed with their measured pIC50 values.
quantity: pIC50

O=C(COc1ccc(Cl)c(F)c1)N[C@H]1CC[C@H](CNC(=O)c2cccc(Cl)c2)CC1 = 7.96
O=C(Cc1ccc(Cl)cc1)NC[C@H]1CC[C@H](NC(=O)COc2ccc(Cl)cc2)CC1 = 7.74
COc1cc(Cl)ccc1OCC(=O)N[C@H]1CC[C@H](NC(=O)COc2ccc(Cl)cc2)CC1 = 7.21
O=C(COc1ccc(Cl)c(F)c1)NN1CCC(CNC(=O)c2ccc(Cl)cn2)CC1 = 7.52
CN1C[C@@H](C(=O)N[C@H]2CC[C@H](NC(=O)COc3ccc(Cl)cc3)CC2)Oc2ccc(Cl)cc21 = 7.91
O=C(N[C@H]1CC[C@H](CNC(=O)c2cc3cc(Cl)ccc3o2)CC1)c1ccc2cc(Cl)ccc2n1 = 8.81
O=C(COc1ccc(Cl)c(F)c1)NN1CCC(CNC(=O)c2cc3cc(Cl)ccc3o2)CC1 = 8.54
O=C(COc1ccc(Cl)c(F)c1)NC[C@H]1CC[C@H](NC(=O)c2cc3cc(Cl)ccc3o2)CC1 = 7.72
O=C(NC[C@H]1CC[C@H](NC(=O)c2cc3cc(Cl)ccc3o2)CC1)c1cc2cc(Cl)ccc2o1 = 9.22
CN1CC(C(=O)N[C@H]2CC[C@H](NC(=O)COc3ccc(Cl)cc3)CC2)Oc2ccc(Cl)cc21 (stereo partly drawn) = 7.71
O=C(COc1ccc(Cl)c(F)c1)N[C@H]1CC[C@H](CNC(=O)c2ccc(Cl)cn2)CC1 = 7.70
O=C(COc1ccc(Cl)cc1)NN1CCC(CNC(=O)Nc2ccc(Cl)cc2)CC1 = 7.84
O=C(NC[C@H]1CC[C@H](NC(=O)COc2ccc(Cl)cc2)CC1)Nc1ccc(Cl)cc1 = 8.41
NC(=O)c1cc(Cl)ccc1OCC(=O)N[C@H]1CC[C@H](NC(=O)COc2ccc(Cl)cc2)CC1 = 7.28
CN1C[C@H](C(=O)N[C@H]2CC[C@H](NC(=O)COc3ccc(Cl)cc3)CC2)Oc2ccc(Cl)cc21 = 7.36
O=C(COc1ccc(Cl)cc1)N[C@H]1CC[C@H](NC(=O)C2CNc3ccc(Cl)cc3O2)CC1 (stereo partly drawn) = 7.45
O=C(COc1ccc(Cl)c(F)c1)N[C@H]1CC[C@H](CNC(=O)c2ccc(Cl)c(F)c2)CC1 = 8.90
O=C(NN1CCC(CNC(=O)c2cc3cc(Cl)ccc3o2)CC1)c1ccc2cc(Cl)ccc2n1 = 8.98
O=C(COc1ccc(Cl)c(F)c1)NC[C@H]1CC[C@H](NC(=O)COc2ccc(Cl)c(F)c2)CC1 = 7.14
O=C(NC[C@H]1CC[C@H](NC(=O)COc2ccc(Cl)c(F)c2)CC1)Nc1ccc(Cl)cc1 = 8.51

---

# Tested on: ATF4 expression, HEK293T cells carrying the ATF4 luciferase reporter
# experimentSummary: ATF4 expression inhibition assay (ATF4 luciferase reporter)
# Assay type: cell-based
# experimentalParameters: Homo sapiens, HEK-293T, 100 nM thapsigargin, 3 hours
# Protocol: The ATF4 reporter was prepared by fusing the human full length 5′UTR of ATF4 (NCBI Accession No. BC022088.2) upstream of the firefly luciferase coding sequence lacking the initiator methionine. […] Luciferase reactions were performed using Luciferase Assay System (Promega #E1501) as specified by the manufacturer. Luminescence was read with an integration time of 1 s and a gain of 110 using a Cytation-5 multi-mode microplate reader (BioTek). […]
quantity: IC50 (nM)

O=C(COc1ccc(Cl)c(F)c1)N[C@H]1CC[C@H](CNC(=O)c2ccc(C(F)(F)F)cn2)CC1 = 2.43
O=C(COc1ccc(Cl)c(F)c1)N[C@H]1CC[C@H](CNC(=O)c2cc3cc(Cl)ccc3o2)CC1 = 0.82
O=C(COc1ccc(Cl)c(F)c1)NC[C@H]1CC[C@H](NC(=O)c2ccc3cc(Cl)ccc3n2)CC1 = 120
O=C(COc1ccc(Cl)c(F)c1)N[C@H]1CC[C@H](CNC(=O)c2ccc(Cl)cc2)CC1 = 2.36

---

# System: ATF4 expression, HEK293T cells carrying the ATF4 luciferase reporter
# experimentSummary: ATF4 expression inhibition assay (ATF4 luciferase reporter)
# Type: cell-based
# experimentalParameters: Homo sapiens, HEK-293T, 100 nM thapsigargin, 3 hours
pIC50: −log10 of the molar value.
quantity: pIC50

O=C(COc1ccc(Cl)c(F)c1)NCC1CCN(CC(O)COc2ccc(Cl)c(F)c2)CC1 (stereo not shown) [Compound 5] = < 6.00
O=C(COc1cccc(Cl)c1)NC[C@H]1CC[C@H](NC(=O)COc2ccc(Cl)c(F)c2)CC1 [Compound 30] = > 6.00
O=C(N[C@H]1CC[C@H](NCC(O)COc2ccc(Cl)cc2)CC1)c1nc2ccc(Cl)cc2[nH]1 (stereo partly shown) [Compound 8] = < 6.00
O=C(COc1ccc(Cl)cc1)N[C@H]1CC[C@H](CNC2CCc3cc(Cl)ccc3C2)CC1 (stereo partly shown) [Compound 33] = < 6.00

---

# Tested on: ATF4 expression, HEK293T cells carrying the ATF4 luciferase reporter
# experimentSummary: ATF4 expression inhibition assay (ATF4 luciferase reporter)
# Assay type: cell-based
# experimentalParameters: Homo sapiens, HEK-293T, 100 nM thapsigargin, 3 hours
pIC50: −log10 of the molar value.
The following molecules are listed with their measured pIC50 values.
quantity: pIC50

CCN1C[C@@H](C(=O)N[C@H]2CC[C@H](NC(=O)COc3ccc(Cl)cc3)CC2)Oc2ccc(Cl)cc21 = > 6.00
O=C(NC[C@H]1CC[C@H](NCCOc2ccc(Cl)c(F)c2)CC1)c1cc2cc(Cl)ccc2o1 = > 6.00
CC(C)(C(=O)NC[C@H]1CC[C@H](NC(=O)COc2ccc(Cl)c(F)c2)CC1)c1ccc(Cl)cc1 = < 6.00
O=C(COc1ccc(Cl)c(F)c1)N[C@H]1CC[C@H](CNC(=O)c2ccc3ccc(Cl)cc3n2)CC1 = < 6.00
CCN1C[C@H](C(=O)N[C@H]2CC[C@H](NC(=O)COc3ccc(Cl)cc3)CC2)Oc2ccc(Cl)cc21 = < 6.00
O=C(NCC1CCN(CC(O)COc2ccc(Cl)c(F)c2)CC1)c1cc2cc(Cl)ccc2o1 (stereo not shown) = > 6.00
NC(COc1ccc(Cl)c(F)c1)CN1CCC(NC(=O)c2ccc3cc(Cl)ccc3n2)CC1 (stereo not shown) = < 6.00
O=C(COc1ccc(Cl)c(F)c1)NC1CC2CCC1CN2CC(O)COc1ccc(Cl)c(F)c1 (stereo not shown) = > 6.00
O=C(NCC1CCN(CC(O)COc2ccc(Cl)c(F)c2)CC1)c1ccc2cc(Cl)ccc2n1 (stereo not shown) = < 6.00
O=C(COc1ccc(Cl)c(F)c1)N[C@H]1CC[C@H](NC(=O)c2nc3ccc(Cl)cc3[nH]2)CC1 = > 6.00

---

# System: ATF4 expression, HEK293T cells carrying the ATF4 luciferase reporter
# experimentSummary: ATF4 expression inhibition assay (ATF4 luciferase reporter)
# Type: cell-based
# experimentalParameters: Homo sapiens, HEK-293T, 100 nM thapsigargin, 3 hours
pIC50: −log10 of the molar value.
quantity: pIC50

O=C(COc1ccc(Cl)cc1)N[C@H]1CC[C@H](NC(=O)C2COc3ccc(Cl)cc3N2)CC1 (stereo partly drawn) = < 6.00
O=C(NC1CCN(CC(O)COc2ccc(Cl)c(F)c2)CC1)c1nc2ccc(Cl)cc2[nH]1 (stereo not drawn) = > 6.00
CC(C)(C(=O)NC[C@H]1CC[C@H](NC(=O)COc2ccc(Cl)cc2)CC1)c1ccc(Cl)cc1 = > 6.00
